- Protocol: Pharmacokinetics in blood during the immunization study
- Format: in vivo
- Test Parameters: male, CD1, mouse, whole blood, po; 15 mg/kg orally TID, day 8
Parameter: Tmax (min)
Give your result in min as a bare value.

**Query** Looking for the measured Tmax of "Cc1ncccc1[C@H]1C[C@@H](c2cccc3nc(N)ccc23)Nc2c(F)cnn21" , can you help?
**Result** 30

---

- Protocol: Pharmacokinetics in blood during the immunization study
- Assay type: in vivo
- Test Parameters: male, CD1, mouse, whole blood, po; 30 mg/kg orally TID, daily steady state, from simulated profiles
Parameter: AUC (ng·h/mL)
Give your result in ng·h/mL as a bare value.

**Query** Looking for the measured AUC of Cc1ncccc1[C@H]1C[C@@H](c2cccc3nc(N)ccc23)Nc2c(F)cnn21 [GSK137] , can you help?
**Result** 6810
